- System: Enterococcus faecalis EFS0004 (VSE)
- experiment summary: Broad spectrum MIC, Table 17/18 B, C, D (CAMHB; + 0.625 mM calcium; + calcium and 30% bovine serum)
- Type: cell-based
- measurement conditions: condition D: + calcium and 30% bovine serum, in µg/mL
// values below are reported MIC, media condition D
Form rule: numeric answer, no unit written next to it.

Example compounds with recorded MIC, media condition D:
compound	test system	endpoint name	recorded value
CCCCCCCCCCCCCCC(=O)NC(CC(=O)O)C(=O)NC1C(=O)N2CCCCC2C(=O)NC(C(C)C(=O)O)C(=O)NC(CC(=O)O)C(=O)NCC(=O)NC(CC(=O)O)C(=O)NCC(=O)NC(C(C)NC(=O)CCN)C(=O)NC(C(C)C)C(=O)N2CCCC2C(=O)NC1C (stereo not drawn) [Compound 147, C15-Amphomycin-9-(β-Ala)]	Enterococcus faecalis EFS0004 (VSE)	MIC, media condition D	32
CCCCCCCCCCCCCCCCC(=O)NC(CC(=O)O)C(=O)NC1C(=O)N2CCCCC2C(=O)NC(C(C)C(=O)O)C(=O)NC(CC(=O)O)C(=O)NCC(=O)NC(CC(=O)O)C(=O)NCC(=O)NC(C(C)N)C(=O)NC(C(C)C)C(=O)N2CCCC2C(=O)NC1C (centres unmarked) [Compound 12, C17-Amphomycin]	Enterococcus faecalis EFS0004 (VSE)	MIC, media condition D	64
CCCCCCCCCCCCCCC(=O)NC(CC(=O)O)C(=O)NC1C(=O)N2CCCCC2C(=O)NC(C(C)C(=O)O)C(=O)NC(CC(=O)O)C(=O)NCC(=O)NC(CC(=O)O)C(=O)NCC(=O)NC(C(C)NC(=O)[C@H]2CCCN2)C(=O)NC(C(C)C)C(=O)N2CCCC2C(=O)NC1C (stereo partly drawn) [Compound 67, C15-Amphomycin-9-(D-Pro)]	Enterococcus faecalis EFS0004 (VSE)	MIC, media condition D	64
CCCCCCCCCCCCCCCCC(=O)NC(CC(=O)O)C(=O)NC1C(=O)N2CCCCC2C(=O)NC(C(C)C(=O)O)C(=O)NC(CC(=O)O)C(=O)NCC(=O)NC(CC(=O)O)C(=O)NCC(=O)NC(C(C)NC(=O)CCN)C(=O)NC(C(C)C)C(=O)N2CCCC2C(=O)NC1C (stereo not drawn) [Compound 80, C17-Amphomycin-9-(β-Ala)]	Enterococcus faecalis EFS0004 (VSE)	MIC, media condition D	64
CCCCCCCCCCCCCCCC(=O)NC(CC(=O)O)C(=O)NC1C(=O)N2CCCCC2C(=O)NC(C(C)C(=O)O)C(=O)NC(CC(=O)O)C(=O)NCC(=O)NC(CC(=O)O)C(=O)NCC(=O)NC(C(C)N)C(=O)NC(C(C)C)C(=O)N2CCCC2C(=O)NC1C (centres unmarked) [Compound 11, C16-Amphomycin]	Enterococcus faecalis EFS0004 (VSE)	MIC, media condition D	64

Prompt: Test system Enterococcus faecalis EFS0004 (VSE); read-out MIC, media condition D; what value for CCCCCCCCCCCCNC(=O)NC(CC(=O)O)C(=O)NC1C(=O)N2CCCCC2C(=O)NC(C(C)C(=O)O)C(=O)NC(CC(=O)O)C(=O)NCC(=O)NC(CC(=O)O)C(=O)NCC(=O)NC(C(C)NC(=O)CCN)C(=O)NC(C(C)C)C(=O)N2CCCC2C(=O)NC1C (centres unmarked) [Compound 97] ?
Completion: 64

Prompt: // fetch Enterococcus faecalis EFS0004 (VSE) MIC, media condition D for CCCCCCCCCCCCCCC(=O)NC(CC(=O)O)C(=O)NC1C(=O)N2CCCCC2C(=O)NC(C(C)C(=O)O)C(=O)NC(CC(=O)O)C(=O)NCC(=O)NC(CC(=O)O)C(=O)NCC(=O)NC(C(C)NC(=O)CN(C)C(=O)[C@@H](N)CCCCN)C(=O)NC(C(C)C)C(=O)N2CCCC2C(=O)NC1C (some centres unmarked) [Compound 199, C15-Amphomycin-9-Sar-Lys]
Completion: 64

Prompt: Find the measured MIC, media condition D: item CCCCCCCCCCCCNC(=O)NC(CC(=O)O)C(=O)NC1C(=O)N2CCCCC2C(=O)NC(C(C)C(=O)O)C(=O)NC(CC(=O)O)C(=O)NCC(=O)NC(CC(=O)O)C(=O)NCC(=O)NC(C(C)NC(=O)CN)C(=O)NC(C(C)C)C(=O)N2CCCC2C(=O)NC1C (centres unmarked) [Compound 92, CH3—(CH2)11—NH—C(═O)-Amphomycin-9-Gly] , target or system Enterococcus faecalis EFS0004 (VSE).
Completion: 64

Prompt: # returns recorded MIC, media condition D (system: Enterococcus faecalis EFS0004 (VSE)) for CCCCCCCCCCCCNC(=O)NC(CC(=O)O)C(=O)NC1C(=O)N2CCCCC2C(=O)NC(C(C)C(=O)O)C(=O)NC(CC(=O)O)C(=O)NCC(=O)NC(CC(=O)O)C(=O)NCC(=O)NC(C(C)N)C(=O)NC(C(C)C)C(=O)N2CCCC2C(=O)NC1C (centres unmarked) [Compound 251, CH3—(CH2)11—NH—C(═O)-Amphomycin]
Completion: 32
